Below, each entry is listed with its recorded Kd.
# targetOfAssay: T1, IFN-αJ1 (human, UniProt P01567 24-189)
# T1 construct: Recombinant, HEK293; also called IFN-α7
# method: ProteOn SPR, cell supernatant;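 note: each binding measurement used just a single antigen concentration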

binder	Kd, nM
IFWM3414 (antibody, IgG1, V domains shown, mAb; IgG1/kappa said of the parent and of selected mAbs; also called IFWB3149) VH: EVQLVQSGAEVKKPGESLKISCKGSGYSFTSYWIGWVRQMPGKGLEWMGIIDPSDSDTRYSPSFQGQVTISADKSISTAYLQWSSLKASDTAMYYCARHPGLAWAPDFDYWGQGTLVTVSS VL: DIQMTQSPSSLSASVGDRVTITCRASQSIRNNYLNWYQQKPGKAPKLLIYAASSLQSGVPSRFSGSGSGTDFTLTISSLQPEDFATYYCQQGYDTPLTFGQGTKVEIK	0.174
IFWM3372 (antibody, IgG1, V domains shown, mAb; IgG1/kappa said of the parent and of selected mAbs; also called IFWB3107) VH: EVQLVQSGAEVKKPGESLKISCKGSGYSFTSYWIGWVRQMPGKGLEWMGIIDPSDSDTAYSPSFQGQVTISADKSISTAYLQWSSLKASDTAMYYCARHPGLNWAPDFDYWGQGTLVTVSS VL: DIQMTQSPSSLSASVGDRVTITCRASQSIDNNNLNWYQQKPGKAPKLLIYAASSLQSGVPSRFSGSGSGTDFTLTISSLQPEDFATYYCQQGYDWPLTFGQGTKVEIK	0.69
